# Rat VPAC2 Receptor: DiscoveRx: (EC50; nM) listing for each entry below
Target: T1, rat VPAC2 receptor (rat, UniProt P35000 23-437)
T1 sequence (looked up): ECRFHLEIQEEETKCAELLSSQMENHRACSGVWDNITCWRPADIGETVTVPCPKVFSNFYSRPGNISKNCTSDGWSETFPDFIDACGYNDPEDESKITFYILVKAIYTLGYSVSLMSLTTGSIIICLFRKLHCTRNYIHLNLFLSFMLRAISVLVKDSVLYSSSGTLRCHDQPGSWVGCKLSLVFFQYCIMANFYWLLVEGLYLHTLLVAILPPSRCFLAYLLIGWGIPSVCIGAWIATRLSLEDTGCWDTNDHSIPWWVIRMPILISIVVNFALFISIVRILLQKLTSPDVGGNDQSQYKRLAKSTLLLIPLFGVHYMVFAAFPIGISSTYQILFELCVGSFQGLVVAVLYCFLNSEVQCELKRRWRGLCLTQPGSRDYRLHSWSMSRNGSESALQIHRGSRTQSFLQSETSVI
Assay: cell-based or functional assay
parameterMeasured: Rat VPAC2 Receptor: DiscoveRx: (EC50; nM)

binder	reading
HSDAVFTEQYTXLRXQLAXXXYLQXIXCXGGPSSGAPPPC (C6-HSDAVFTEQY(OMe)TOrnLRAibQLAAbuAibOrnYLQAibIOrnC(PEG20K)OrnGGPSSGAPPPC(PEG20K)-NH2) [P553]	22 nM
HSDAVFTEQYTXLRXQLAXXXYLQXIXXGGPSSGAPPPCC (C6-HSDAVFTEQY(OMe)TOrnLRAibQLAAbuAibOrnYLQAibIOrnOrnGGPSSGAPPPC(PEG20K)C(PEG20K)-NH2) [P517]	10 nM
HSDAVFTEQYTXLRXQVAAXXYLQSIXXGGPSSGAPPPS (C6-HSDAVFTEQY(OMe)TOrnLRAibQVAAAibK(CO(CH2)2SPEG20K)YLQSIOrnOrnGGPSSGAPPPS-NH2) [P473]	25.5 nM
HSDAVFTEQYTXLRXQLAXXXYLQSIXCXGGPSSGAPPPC (C6-HSDAVFTEQY(OMe)TOrnLRAibQLAAbuAibOrnYLQSIOrnC(PEG20K)OrnGGPSSGAPPPC(PEG20K)-NH2) [P555]	32.5 nM
HSDAVFTEQYTXLRXQVAAXXYLQSIXXXGGPSSGAPPPC (C6-HSDAVFTEQY(OMe)TOrnLRAibQVAAAibOrnYLQSIOrnK(CO(CH2)2SPEG20K)OrnGGPSSGAPPPC(PEG20K)-NH2) [P499]	68.2 nM
HSDAVFTEQYTXLRXQLAXXXYLQXIXXCGGPSSGAPPPC (C6-HSDAVFTEQY(OMe)TOrnLRAibQLAAbuAibOrnYLQAibIOrnOrnC(PEG20K)GGPSSGAPPPC(PEG20K)-NH2) [P580]	11.9 nM
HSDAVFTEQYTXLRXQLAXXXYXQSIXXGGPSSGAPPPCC (C6-HSDAVFTEQY(OMe)TOrnLRAibQLAAbuAibOrnYAibQSIOrnOrnGGPSSGAPPPC(PEG30K)C(PEG30K)-NH2) [P602]	36.9 nM
HSDAVFTEQYTXLRXQLAXXXYLQSIXXCGGPSSGAPPPS (C6-HSDAVFTEQY(OMe)TOrnLRAibQLAAbuAibOrnYLQSIOrnOrnC(PEG40K)GGPSSGAPPPS-NH2) [P566]	13.1 nM
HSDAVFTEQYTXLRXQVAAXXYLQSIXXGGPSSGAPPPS (C6-HSDAVFTEQY(OMe)TOrnLRAibQVAAK(CO(CH2)2SPEG40K)OrnYLQSIOrnOrnGGPSSGAPPPS-NH2) [P475]	220 nM
HSDAVFTEQYTXLRXQLAXXXYLQXCXXGGPSSGAPPPS (C6-HSDAVFTEQY(OMe)TOrnLRAibQLAAbuAibOrnYLQAibC(PEG40K)OrnOrnGGPSSGAPPPS-NH2) [P541]	102 nM
HSDAVFTEQYTXLRXQLAAXXYLQSIXXCGGPSSGAPPPS (C6-HSDAVFTEQY(OMe)TOrnLRAibQLAAAibOrnYLQSIOrnOrnC(PEG40K)GGPSSGAPPPS-NH2) [P560]	20.4 nM
HSDAVFTEQYTXLRXQLAXXXYLQSIXXXGGPSSGAPPPC (C6-HSDAVFTEQY(OMe)TOrnLRAibQLAAbuAibOrnYLQSIOrnK(CO(CH2)2SPEG20K)OrnGGPSSGAPPPC(PEG20K)-NH2) [P551]	13.2 nM
HSDAVFTEQYTXLRCQVAAXXYLQSIXXGGPSSGAPPPS (C6-HSDAVFTEQY(OMe)TOrnLRC(PEG40K)QVAAAibOrnYLQSIOrnOrnGGPSSGAPPPS-NH2) [P483]	128 nM

Origin of values: patent US20080234198A1
